# credit: patent US20180036441A1

// geometric mean lookup, one value per entry
# MEASURED ON: T1, MUC1 on HCT116/MUC1 cells (UniProt P15941 24-1255, limits assumed)
# T1 construct: whole, on cells; also called MUC1 overexpressed cell line
# METHOD NOTES: FACS titration, HCT116/MUC1 cells, antibody at 15.625 nM
Just the number, please.

1. VH5 + VL3 (antibody, V domains shown, Humanized IgG expressed in HEK293; also called humanized antibody VH5+VL3) VH: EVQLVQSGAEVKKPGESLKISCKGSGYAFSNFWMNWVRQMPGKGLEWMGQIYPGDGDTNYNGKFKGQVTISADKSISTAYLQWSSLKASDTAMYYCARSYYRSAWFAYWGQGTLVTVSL VL: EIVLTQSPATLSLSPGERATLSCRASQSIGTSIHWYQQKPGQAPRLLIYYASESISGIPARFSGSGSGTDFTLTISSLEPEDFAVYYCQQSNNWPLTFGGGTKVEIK; 61.5
2. VH1 + VL4 (antibody, V domains shown, Humanized IgG expressed in HEK293; also called humanized antibody VH1+VL4) VH: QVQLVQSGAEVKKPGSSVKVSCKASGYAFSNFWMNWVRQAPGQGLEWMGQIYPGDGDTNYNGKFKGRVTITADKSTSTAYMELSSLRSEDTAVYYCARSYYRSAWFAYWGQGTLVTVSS VL: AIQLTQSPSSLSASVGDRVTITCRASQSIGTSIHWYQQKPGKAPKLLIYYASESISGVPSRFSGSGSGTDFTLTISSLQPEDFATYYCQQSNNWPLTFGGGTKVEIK; 27.7
3. VH2 + VL1 (antibody, V domains shown, Humanized IgG expressed in HEK293; also called humanized antibody VH2+VL1) VH: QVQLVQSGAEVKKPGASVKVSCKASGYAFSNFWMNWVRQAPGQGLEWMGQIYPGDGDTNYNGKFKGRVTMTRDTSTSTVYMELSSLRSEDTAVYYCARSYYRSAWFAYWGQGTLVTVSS VL: EIVLTQSPDFQSVTPKEKVTITCRASQSIGTSIHWYQQKPDQSPKLLIKYASESISGVPSRFSGSGSGTDFTLTINSLEAEDAATYYCQQSNNWPLTFGQGTKVEIK; 29
4. VH2 + VL3 (antibody, V domains shown, Humanized IgG expressed in HEK293; also called humanized antibody VH2+VL3) VH: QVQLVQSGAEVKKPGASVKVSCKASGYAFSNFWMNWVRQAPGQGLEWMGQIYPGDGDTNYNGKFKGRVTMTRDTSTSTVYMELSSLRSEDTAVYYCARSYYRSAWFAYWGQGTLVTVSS VL: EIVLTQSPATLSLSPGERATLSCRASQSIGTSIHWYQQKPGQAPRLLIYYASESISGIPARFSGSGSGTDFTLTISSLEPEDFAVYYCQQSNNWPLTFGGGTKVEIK; 26.2

Continue with the binder presented below.
**Q:** Need geometric mean, item VH3 + VL3 (antibody, V domains shown, Humanized IgG expressed in HEK293; also called humanized antibody VH3+VL3) VH: QVQLVQSGAEVKKPGASVKVSCKASGYAFSNFWMNWVRQAPGQGLEWMGQIYPGDGDTNYNGKFKGRVTMTRDTSISTAYMELSRLRSDDTAVYYCARSYYRSAWFAYWGQGTLVTVSS VL: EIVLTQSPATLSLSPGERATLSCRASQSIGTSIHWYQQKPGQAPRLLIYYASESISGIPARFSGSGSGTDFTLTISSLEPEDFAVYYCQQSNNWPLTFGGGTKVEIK
**A:** 27.3
